Tested on: DFO2036
Assay Comment: qHTS profiling for inhibitors of Plasmodium falciparum proliferation (AID 504749); note: nearly all actives have a fitted effect of over 60% in size
Measurement Context: P. falciparum in erythrocytes, SYBR Green DNA, 72 h; series mostly up to 28.7 µM
Inconclusive results are not listed. The source made the active and inactive calls. Calls come from the whole dose curve; as a rule, active = well fitted inhibition curve with a large enough effect; inconclusive = small, poorly fitted or top-dose-only effect; inactive = flat fitted curve, though single readings scatter.
Parameter call: string, one of True (active), False (inactive)

How did this test come out for CN1CCN(c2cc3c(nn2)Oc2ccccc2N3C)CC1 ?
False

Please let me know the test result on file for O=C(O)[C@H](CC(=O)N1C[C@H]2CCCC[C@H]2C1)Cc1ccccc1 .
False

Hi, sorry to bother you, what did the test record for CC1(C)C[C@@H]1C(=O)N/C(=C\CCCCSC[C@H](N)C(=O)O)C(=O)O ?
False

Status in this test for Clc1ccccc1-c1nc(-c2ccncc2)no1 ?
False

Assay result, entry c1ccc2sc(SN3CCOCC3)nc2c1 — outcome?
False

Hi team, can someone confirm the assay call for Cc1cc(O)c2ccccc2c1O ?
False

I'd appreciate the recorded outcome for O=C(O)Cc1ccc(-c2ccccc2)cc1 from this test.
False

Test call for this molecule, please: Cc1c(Nc2ncccc2C(=O)O)cccc1C(F)(F)F
False

Assay result, entry CCCCC[C@H](O)/C=C/[C@@H]1[C@@H](C/C=C\CCCC(=O)O)[C@@H](O)C[C@H]1O — outcome?
False

State the result this test recorded for CN1[C@@H]2CC[C@H]1CC(OC(c1ccccc1)c1ccccc1)C2 (stereo partly specified) .
True

What call does the record list for Nc1c(CC(=O)O)cccc1C(=O)c1ccc(Br)cc1 ?
False

----------
Assay Comment: Primary qHTS for inhibitors of nuclear receptor binding SET domain protein 2 (NSD2) in an isogenic RCH-ACV NSD2 p.E1099K mutant (9B) (AID 1645876); note: nearly all actives have a fitted effect of over 70% in size
Measurement Context: RCH-ACV (leukaemia line) NSD2 E1099K (9B) viability, CellTiter-Glo, 72 h; series mostly up to 44.9 µM
Inconclusive results are not listed. Active and inactive are the calls of the source. Calls follow the shape of the dose curve; as a rule, active = well fitted inhibition curve with a large enough effect; inconclusive = small, poorly fitted or top-dose-only effect; inactive = flat fitted curve, though single readings scatter.
Valid outcomes are listed here; reply with one: active, inactive

Hello, I am checking results. What call was entered for CC(N)C(=O)OC(C)(C)Cc1ccc(Cl)cc1 (stereo not drawn) ?
inactive

Record request — test call for Cc1c(N)c(=O)n(-c2ccccc2)n1C
inactive

Fill in: this test's call for CN(C)c1nc2c(Br)c(Br)c(Br)c(Br)c2[nH]1 is ___
active

----------
Assay Comment: Cell Viability - LYMP1-003 - Assay at 24 hr (AID 963)
Measurement Context: LYMP1-003 lymphoblastoid cell viability; series mostly up to 92.2 µM
Calls of active or inactive are those of the source. Calls follow the shape of the dose curve; as a rule, active = well fitted cell-killing curve with a large enough effect; inconclusive = small, poorly fitted or top-dose-only effect; inactive = flat fitted curve, though single readings scatter.
Mark one answer only. Choices: class 1 for active, class 0 for inactive

Give the logged outcome of this assay for the following compound: CC(C)NCC(O)COc1cccc2ccccc12 (stereo not given)
class 0

Check the results log: what was the call for O=C(O)c1cc(O)c(O)c(O)c1 ?
class 0

Call for entry CC1(C)S[C@@H]2[C@H](NC(=O)[C@H](N)c3ccccc3)C(=O)N2[C@H]1C(=O)O :
class 0

Recorded test outcome, item Nc1nc2ccc([N+](=O)[O-])cc2s1
class 0

Field: outcome | Entry: N=C1N=C(N)c2cc3ccccc3cc21
class 1

// param item: c1ccc2sc(SSc3nc4ccccc4s3)nc2c1 ; yields the recorded call
class 0

Short answer needed: outcome of this test for Nc1ccc(O)c(C(=O)O)c1 ?
class 0

Identify the outcome logged in this assay for the compound shown: CN1CCC[C@H]1c1cccnc1
class 0

Could you kindly confirm the outcome this assay logged for NCCO ?
class 0

Assay outcome for Nc1ccc([N+](=O)[O-])cc1O : what was it?
class 0

----------
System: Dd2
Assay Comment: qHTS profiling for inhibitors of Plasmodium falciparum proliferation (AID 504749); note: nearly all actives have a fitted effect of over 60% in size
Measurement Context: P. falciparum in erythrocytes, SYBR Green DNA, 72 h; series mostly up to 28.7 µM
Results filed as inconclusive are left out. Calls of active or inactive are those of the source. Calls come from the whole dose curve; as a rule, active = well fitted inhibition curve with a large enough effect; inconclusive = small, poorly fitted or top-dose-only effect; inactive = flat fitted curve, though single readings scatter. Where a SMILES comes first, the peptide text is derived from it. [ ]: non-standard residue; d: D form. pGlu = O=C1CC[C@@H](C(=O)O)N1; Thz = O=C(O)[C@@H]1CSCN1
Respond with a class label; see active, inactive

Outcome? C=CC(N)CCC(=O)O (configuration not stated)
inactive

State the result this test recorded for Cc1ccc(C(=O)c2ccc(CC(=O)O)n2C)cc1 .
inactive

Which outcome was assigned to COc1cc(CNC(=O)CCCC/C=C/C(C)C)ccc1O in this test?
inactive

Call for entry O=C(/C=C/c1ccccc1)NCCO :
inactive

Outcome logged for O=C1CC[C@@H](C(=O)N2CSC[C@H]2C(=O)O)N1 ([pGlu]-[Thz]-OH) in this assay:
inactive

Hi team, can someone confirm the assay call for CN(C)c1ccc(C(=C2C=CC(=[N+](C)C)C=C2)c2ccccc2)cc1 ?
active

Hey, what did the test say about CCCC(=O)OC[C@@H](OC(=O)CCC)[C@@H](OC(=O)CCC)[C@H](Cn1c2nc(=O)[nH]c(=O)c-2nc2cc(C)c(C)cc21)OC(=O)CCC ?
active

----------
Assay Comment: qHTS Assay for Identifying Gametocytocidal Compounds (AID 743244);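 note: % is set by controls: 0 for no effect and ±100 for the full control effect; actives lower the fluorescent signal which means gametocytes are killed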
Measurement Context: P. falciparum 3D7 stage III-V gametocytes, alamarBlue, 72 h; hits give low values
Inconclusive results are not listed. The source made the active and inactive calls. The call rests on the fitted dose curve; in most records, active means well fitted curve in the direction sought with a large enough effect; inconclusive means small, poorly fitted or top-dose-only effect, or another doubt; inactive means no such curve, though single readings can be large or run the other way.
Property Measured: max response

Lookup result for NC(=O)C1=CN(C2OC(COP(=O)(O)OP(=O)(O)OC[C@H]3O[C@@H](n4cnc5c(N)ncnc54)[C@H](OP(=O)(O)O)[C@@H]3O)C(O)C2O)C=CC1 (stereo partly drawn) ; measured max response: -6.13% (inactive)

Value of max response reported for the compound O=c1[nH]c2ccccc2n1CCCN1CCN(C(c2ccccc2)c2ccccc2)CC1 is 14.5% (inactive)

In plain terms, Nc1ccc(O)c(C(=O)O)c1 has a documented max response of 11.4% (inactive)

----------
Study System: Ubiquitin carboxyl-terminal hydrolase 1 (Homo sapiens)
Assay Comment: Inhibitors of USP1/UAF1: Pilot qHTS (AID 504865); note: nearly all actives have a fitted effect of over 35% in size
Measurement Context: purified USP1/UAF1, Ub-rhodamine cleavage fluorescence; series mostly up to 114 µM
Results filed as inconclusive are left out. Calls of active or inactive are those of the source. The call rests on the fitted dose curve; in most records, active means well fitted inhibition curve with a large enough effect; inconclusive means small, poorly fitted or top-dose-only effect; inactive means flat fitted curve, though single readings scatter.
Give your call using only these classes: 1 (yes) = active, 0 (no) = inactive

Returns: the outcome recorded for NCCCS(=O)(=O)O in this assay.
0 (no)

State the result this test recorded for S=c1[nH]c2ccccc2s1 .
0 (no)

In this assay, the call recorded for Cc1cc2c(cc1Cl)N(C(=O)Nc1ccc(Oc3cccnc3C)nc1)CC2 was what?
1 (yes)

Hello, I am checking results. What call was entered for C=CC(N)CCC(=O)O (stereo not given) ?
0 (no)

Name the outcome recorded for c1ccc2sc(SN3CCOCC3)nc2c1 in the assay.
0 (no)

What is the recorded call for this compound in the test? C=CCCCCCCCCC(=O)O
0 (no)

Tell me the assay call for CN1CCc2cccc3c2C1Cc1ccc(O)c(O)c1-3 (stereo not given) please.
0 (no)

How was O=C(/C=C/c1ccc(O)cc1)c1ccc(O)cc1O classified in this test?
1 (yes)

Please state the recorded outcome for this compound: COc1ccccc1CNCCCCCCNCCCCCCCCNCCCCCCNCc1ccccc1OC
0 (no)

Per the records of this test, what outcome belongs to O=C(O)[C@H](O)[C@@H](O)[C@H](O)[C@H](O)CO ?
0 (no)

Tell me the assay call for Nc1nc(Cl)nc2c1ncn2[C@@H]1O[C@H](COP(=O)(O)OP(=O)(O)OP(=O)(O)O)[C@@H](O)[C@H]1O please.
0 (no)

Please let me know the test result on file for COc1cccc(C(=O)NCCN2CCN(c3ccc(Cl)cc3)CC2)c1 .
0 (no)

For this compound, state the assay outcome: CN1CC(=O)N/C1=N/C(=O)Nc1cccc(Cl)c1
0 (no)

For O=C(c1ccc(OCCCc2cnc[nH]2)cc1)C1CC1 , which call appears in the assay record?
0 (no)

Test call, this compound: Nc1ncnc2c1ncn2[C@@H]1O[C@H](COP(=O)(O)OP(=O)(O)OP(=O)(O)OP(=O)(O)OC[C@@H]2O[C@H](n3cnc4c(N)ncnc43)[C@@H](O)[C@H]2O)[C@@H](O)[C@H]1O
0 (no)

----------
Assay Comment: Counterscreen for APE1 Inhibitors: Fluorescent Dye Displacement Validation Assay (AID 1707)
Measurement Context: fluorescent dye displacement from DNA; series mostly up to 57.1 µM
Inconclusive results are not listed. Active and inactive are the calls of the source. The call rests on the fitted dose curve; in most records, active means well fitted inhibition curve with a large enough effect; inconclusive means small, poorly fitted or top-dose-only effect; inactive means no such curve, though single readings can be large or run the other way.
Select the matching outcome among True for active, False for inactive

Status in this test for COc1cc2nc(N3CCN(C(=O)OCc4ccccc4)C(C(=O)NC(C)(C)C)C3)nc(N)c2cc1OC (stereo not drawn) ?
False

Please indicate how the test categorized CCN1/C(=C/C(C)=O)Sc2ccc(OC)cc21 .
False

How did this test come out for CN[C@H](CC(C)C)C(=O)N[C@H]1C(=O)N[C@@H](CC(N)=O)C(=O)N[C@H]2C(=O)N[C@H]3C(=O)N[C@H](C(=O)N[C@H](C(=O)O)c4cc(O)cc(O)c4-c4cc3ccc4O)[C@H](O)c3ccc(c(Cl)c3)Oc3cc2cc(c3O[C@@H]2O[C@H](CO)[C@@H](O)[C@H](O)[C@H]2O[C@H]2C[C@](C)(N)[C@H](O)[C@H](C)O2)Oc2ccc(cc2Cl)[C@H]1O ?
False

Please state the recorded outcome for this compound: CN(C)C(N)=NCCC[C@H](N)C(=O)O
False

Query: recorded result category for COC(=O)c1c(C)[nH]c(C)c1C(=O)c1ccccc1Cc1ccccc1 in this test
False

Entry CN1CCc2cc(O)c(O)cc2C(c2ccccc2)C1 (stereo not drawn) : call = ?
False

Recorded test call requested for CC(C)(C)NCC(O)COc1nsnc1N1CCOCC1 (stereo not drawn)
False

Would you mind telling me which call this test gave NC(CCCP(=O)(O)O)C(=O)O (stereo not drawn) ?
False

Hi team, can someone confirm the assay call for O=C(Nc1ccccc1)c1cc([N+](=O)[O-])ccc1Cl ?
False

Assay outcome for C#CCN1C(C)=C(C(=O)OC)C(c2cccc([N+](=O)[O-])c2)C(C(=O)OCC)=C1C (stereo not drawn) : what was it?
False

Check the results log: what was the call for O=C(O)c1cc(=O)c2ccccc2[nH]1 ?
False

What did this assay record as the result for OC[C@H]1O[C@@H](n2cnc3c(NC4CCCCC4)ncnc32)[C@H](O)[C@@H]1O ?
False

// return assay outcome for O=C(O)c1cc([N+](=O)[O-])ccc1NCCCc1ccccc1
False

Check the results log: what was the call for S=C(S)OC1CC2CC1C1CCCC21 (stereo not drawn) ?
False

Hi, sorry to bother you, what did the test record for N#C/C(=C\c1ccc(O)c(O)c1)C(=O)c1ccc(O)c(O)c1 ?
False

# lookup: test call for CCCCCC(O)c1cccc(OCc2ccc3ccccc3n2)c1 (stereo not drawn)
False

How did this test come out for Cc1ccc(C(=O)O[C@H](C(=O)O)[C@@H](OC(=O)c2ccc(C)cc2)C(=O)O)cc1 (tested in a mixture with another compound) ?
False

Dear all, I need the recorded test outcome for O=C1O/C(=C/Br)CCC1c1cccc2ccccc12 (stereo not drawn) , thank you.
False

Which result was noted for this compound in the test: CC[C@@H](C)[C@H]1O[C@]2(CC[C@@H]1C)C[C@@H]1C[C@@H](C/C=C(\C)[C@@H](O[C@H]3C[C@H](OC)[C@@H](O[C@H]4C[C@H](OC)[C@@H](O)[C@H](C)O4)[C@H](C)O3)[C@@H](C)/C=C/C=C3\CO[C@@H]4[C@H](O)C(C)=C[C@@H](C(=O)O1)[C@]34O)O2
False

What is the recorded call for this compound in the test? NCCCCCCCCCCN
False

So what was the verdict on CC(C)NC[C@H](O)COc1cccc2[nH]ccc12 in this test?
False

// param item: N#C/C(=C\c1ccc(O)c(O)c1)C(=O)NCc1ccccc1 ; yields the recorded call
False

Returns: the outcome recorded for CNCC[C@H](Oc1ccc(C(F)(F)F)cc1)c1ccccc1 in this assay.
False

How did this test come out for Clc1ccc(N2CCN(Cc3c[nH]c4ncccc34)CC2)cc1 ?
False

What did this assay record as the result for C[N+](C)(CCCCCC[N+](C)(C)CCCN1C(=O)c2cccc3cccc(c23)C1=O)CCCN1C(=O)c2cccc3cccc(c23)C1=O ?
True

Hi, sorry to bother you, what did the test record for O=S(=O)(c1cccc2c(I)cccc12)N1CCCNCC1 ?
False

# outcome recorded in this test, key = CC(C)(C)c1ccc(S(=O)(=O)/C=C/C#N)cc1
False

Which outcome was assigned to CC(=O)N[C@H](C(=O)O)C(C)(C)SN=O in this test?
False
